- test: yeast display, Sf9 membrane polyspecificity reagent, FACS + sequencing; frameworks hold sequencing errors

| sequence | polyreactivity (PSR sort gate) |
| --- | --- |
| QVQLVESGAGLVQAGGSLRLSCAPSGFTFSWYVMGWYRQAPGKERELVAAITSSGGRTYYADSVKGRFTISRDNAKNTVYLQMNSLKPEDTAVYYCAARFKRGLGDSWGQGTQVTVSS | high polyreactivity |
| QVQLVESGGGLVQAGGSLRLSCASSGNIFVPNAMGGYRQAPGKERELVAAIRRGGSTNYADSVKGRFTISRDNAQNTVDGQMNSLKPEDTAVYYCAKSRVSFTDLEGYYWGQGTQVTVSS | low polyreactivity |
| QVQLVESGGGLVQAGGSLRLSCAASGSTFVPYTMGWYRQAPGKERELVAAISGSGGTDYADSVKGRFTISRDNAKNTVYLQMNSLKPEDTAVYYCATDGLDFWFIYDYWGQGTHVTVSS | low polyreactivity |
| QVQLVESGGGLVQAGGSLRLSCAASGGTFQSNAKGWYRQAPGKERELVASITSRGSSTYYADSVKGRFTISRDNAKNTVYLQMNSLKPEDTAVFYCAKGRSLQMYYKGGIKGGYWGQGTQVTVSS | low polyreactivity |
| QVQLVESGGGLVQAGGSLRLSCAASGFIFYANAMGWYRQAPGKERELVAAITWSGSRTYYADSVKGRFTISRDNAKNTVYLQMNSLKPEDTAVYYCNKDWYVGSFGYPEDYWGQGTQVSVSS | low polyreactivity |
| QVQLVESGGGLVQAGGSLRLSCDASGRIFGYYAMGWYRQAPGKERELVAAISDGGSTDYADSVKGRFTISRDNAKNTVYLQMNSLKPEDTAVYYCNADRLYLYNVEYDYWGQGTQVTVSS | low polyreactivity |
| QVQLVESGGGLVQAGGSLRLSCAASGRIFYTYAMGWYRQAPGKERELVAAIRWRGGSTHYADSVKGRFTISRDNAKNTVYLQMNSLKPEDTAVYYCARDGGWYIDGRAYTGDYWGQGTQVTVSS | high polyreactivity |
| QVQLVESGGGLVQAGGSLRLSCAASGRTFGRYAMGWYRQAPGKERELVAAITWSGGSTYYADSVKGRFTISRDYAKNTVYLQMNSLKPEDTAVYYCAAARVYFGDLFVVYYFIQYDYWGQGTQVTVSS | low polyreactivity |
| QVQLVESGGGLVQAGGSLRLSCAASGSTFFSNAMGWYRQAPGKERELVAAISGSGDSTYYADSVKGRFTISRDNAKNTVYLQMNSLKPEDTAVYYCAARLSTAHYYLGDYWGQGTEVTVSS | low polyreactivity |
| QVQLVESGGALVQAGGSLRLSCAASGNIFVYYAMGGYRQAPGKERELVAAITSDVSTYYADSVKGRFTISRDNAKNTVYLQMNSLKPEDTAVYYCATTGYGSYVIYWGQGTQVTVSS | low polyreactivity |
| QVQLVESGGGLVQAGGSLRLSCAASGLIFSQNAMGWYRQAPGKERELVARITLSGTSTYYADSVKGRFTISRDNAKNTVYLQMISLKPEDTAVYYCNTRSYSYYVPYRYDYWGQGTQVTVSS | high polyreactivity |
